Tested on: PIP5K1A;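 further: KINOMEscan kinase panel screen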
TEST_CONTEXT: concentration: 1 μM, replicates: in singlicate; n = 1
%Inh values, listed per item
Answer with a number only, understood to be in %.

Cc1ccc(O)cc1Nc1ccnc2cc(-c3ccc(CN4CCCCC4)o3)ccc12	0
CN1CCN(Cc2ccc(NC(=O)Nc3ccc(N(C)c4ccnc(Nc5ccc(CS(C)(=O)=O)cc5)n4)cc3)cc2)CC1.Cl	74
COc1cccc(CC(=O)N2CCc3cc(-c4cn(C)c5ncnc(N)c45)ccc32)c1	0
O=C1NC(=O)C(c2ccccc2Cl)=C1Nc1cccc(Cl)c1	11
COc1ccc(C2=C(Nc3cccc(O)c3)C(=O)NC2=O)cc1	4

Just so you know, measured %Inh for COc1ccc(C)c(Nc2ccnc(Nc3ccc(-c4cnc[nH]4)cc3)n2)c1.Cl came out at 0

Lab note: Cl.Cl.NC(CNC(=O)c1cc(Br)c(-c2ccnc3[nH]ccc23)s1)c1ccccc1 (centres unmarked) gave %Inh of 74

Looking up COc1cc(Nc2ccnc3cc(-c4ccncc4)ccc23)cc(OC)c1OC.Cl , I found its %Inh recorded as 0

The reported numbers originate from paper PMC5540273.
